The origin of these recorded values is patent US7041642B1.

biological target: BB1, BB2 and BB3 expressed by rat brain neurons; test: radioligand displacement (radiolabeled bombesin), rat cerebral cortex, non-selective
pKi: −log10 of the molar value.

BINDER: {fluorescein (carboxylic form)}-GNHWAVGHLM-NH2 [fluoresceinyl-NMC peptide]
pKi: 8.49
